Reported pIC50 values are given for each entry in this list.
# target.or.test.system: full-length human RORγt (Homo sapiens (Human))
# Sequence (P51449 other isoform, or with tags, fused parts or gaps): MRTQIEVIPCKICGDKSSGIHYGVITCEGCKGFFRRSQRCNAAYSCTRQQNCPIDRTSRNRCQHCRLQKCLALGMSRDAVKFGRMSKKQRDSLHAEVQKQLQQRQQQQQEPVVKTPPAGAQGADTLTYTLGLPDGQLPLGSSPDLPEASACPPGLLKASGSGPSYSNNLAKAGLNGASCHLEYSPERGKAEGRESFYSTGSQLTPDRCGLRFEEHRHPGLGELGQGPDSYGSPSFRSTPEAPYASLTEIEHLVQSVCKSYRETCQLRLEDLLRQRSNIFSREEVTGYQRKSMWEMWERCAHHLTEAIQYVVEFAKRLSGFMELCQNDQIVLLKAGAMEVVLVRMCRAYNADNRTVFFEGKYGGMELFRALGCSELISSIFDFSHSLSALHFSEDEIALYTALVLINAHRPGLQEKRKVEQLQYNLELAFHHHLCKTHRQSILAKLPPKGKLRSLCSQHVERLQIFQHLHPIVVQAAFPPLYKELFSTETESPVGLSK
# test: RORγt (full-length human) reporter assay, Conditions A
# Format: cell-based
# details: Conditions A; read-out: RORγt (FL) Reporter Assay A, IC50
pIC50: −log10 of the molar value.

{"columns": ["compound", "pIC50"],
 "data": [
  ["CC(C)(O)CNC(=O)c1nc(C(=O)N2CCC(F)CC2)c(-c2cnc(NC3CCC(F)(F)C3)cc2C(F)(F)F)s1 (stereo not shown) [Example 20]", 6.70],
  ["CC(C)(O)CNC(=O)c1nc(C(=O)N2CCC(F)CC2)c(-c2cnc(NC3CCCCC3)cc2C#N)s1 [Example 57]", 7.11],
  ["CCOc1cc(NC2CCCCC2)ncc1-c1sc(C(=O)NCC(C)(C)O)nc1C(=O)N1CCC(F)CC1 [Example 69]", 6.20],
  ["C[C@H]1CC(F)(F)CN1C(=O)c1nc(C(=O)NCC(C)(C)O)sc1-c1cnc(NC2CCCCC2)cc1C(F)(F)F [Example 11]", 7.77],
  ["CC(C)(O)CNC(=O)c1nc(C(=O)N2CCC(F)CC2)c(-c2cnc(NC3CC4(CCC4)C3)cc2C(F)(F)F)s1 [Example 24]", 7.01],
  ["Cc1c(-c2sc(C(=O)NCC(C)(C)O)nc2C(=O)N2CCC(F)CC2)cnc(NC2CCCCC2)c1C#N [Example 60]", 6.37],
  ["CC(C)(O)CNC(=O)c1nc(C(=O)N2CCC(F)CC2)c(-c2cnc(NC3CC(F)(F)C3)c(C(F)(F)F)c2)s1 [Example 16]", 6.33],
  ["CC(C)(O)CNC(=O)c1nc(C(=O)N2CCC(F)CC2)c(-c2cnc(NC3CCCC(F)(F)C3)c(C(F)(F)F)c2)s1 (stereo not shown) [Example 13]", 7.00],
  ["CC(C)(O)CNC(=O)c1nc(C(=O)N2CCC(F)CC2)c(-c2cnc(NC3CCCC3)cc2C(F)(F)F)s1 [Example 10]", 7.15],
  ["CC(C)(O)CNC(=O)c1nc(C(=O)N2CCC(F)CC2)c(-c2cnc(NC3CCCCC3)c(C#N)c2)s1 [Example 58]", 6.11],
  ["CC(C)(O)CNC(=O)c1nc(C(=O)N2CCC(F)CC2)c(-c2cnc(NC3CCCCC3)cc2C(F)F)s1 [Example 14]", 7.12],
  ["CC(C)(O)CNC(=O)c1nc(C(=O)N2CCC(F)CC2)c(-c2cnc(NC3CCCC(F)(F)C3)cc2C(F)(F)F)s1 (stereo not shown) [Example 23]", 7.10],
  ["CC(C)(O)CNC(=O)c1nc(C(=O)N2CCC(F)CC2)c(-c2cnc(NC3CCCCC3)c(OC(F)F)c2)s1 [Example 62]", 6.80]
]}
